These data points were gathered from paper PMC6613885.

target: T1, GST-GABARAPL1 (UniProt Q9H0R8 1-117); test: peptide or protein array; two-dimensional scan: 18-mer peptides on cellulose membrane, each position replaced with all 20 amino acids; probed with 1 µg/ml GST-GABARAPL1 for 2 h; anti-GST antibody; conditions: both partners purified
T1 construct: GABARAPL1 (GABA type A receptor associated protein like 1); also called pDest15 (GST)-GABARAPL1; source: E. coli SoluBL21, purified on glutathione-Sepharose 4 Fast Flow beads
EXPERIMENTAL ENDPOINT: binding result

# example entries with known answers
BINDER: ESSPILTSFELVKVPDPQ (PIK3C3, human, amino acids 242-259; also called PIK3C3 LIR; source: synthetic peptide, SPOT synthesis on cellulose membrane) [PIK3C3 242-259 18-mer array peptide, wild type]
binding result: binds
--
BINDER: ESSPILTSFEYVKVPDPQ (PIK3C3, human, amino acids 242-259; source: synthetic peptide, SPOT synthesis on cellulose membrane) [PIK3C3 242-259 18-mer array peptide, L252Y]
binding result: binds
--
BINDER: ESSPILTSWELVKVPDPQ (PIK3C3, human, amino acids 242-259; source: synthetic peptide, SPOT synthesis on cellulose membrane) [PIK3C3 242-259 18-mer array peptide, F250W]
binding result: binds
--
BINDER: MSTESANSFTIIGEASDG (BECN1, human, amino acids 89-106; source: synthetic peptide, SPOT synthesis on cellulose membrane) [BECN1 89-106 18-mer array peptide, L99I]
binding result: binds

Could you report binding result for every entry in the following list?
1. MSTESANSFILIGEASDG (BECN1, human, amino acids 89-106; source: synthetic peptide, SPOT synthesis on cellulose membrane) [BECN1 89-106 18-mer array peptide, T98I]
2. MSTESANSFTLLGEASDG (BECN1, human, amino acids 89-106; source: synthetic peptide, SPOT synthesis on cellulose membrane) [BECN1 89-106 18-mer array peptide, I100L]

[reply]
1. binds
2. binds

Could you report binding result for every entry in the following list?
1. MSTESANSFTLIEEASDG (BECN1, human, amino acids 89-106; source: synthetic peptide, SPOT synthesis on cellulose membrane) [BECN1 89-106 18-mer array peptide, G101E]
2. MSTESANSFCLIGEASDG (BECN1, human, amino acids 89-106; source: synthetic peptide, SPOT synthesis on cellulose membrane) [BECN1 89-106 18-mer array peptide, T98C]
3. ESSPILTSFFLVKVPDPQ (PIK3C3, human, amino acids 242-259; source: synthetic peptide, SPOT synthesis on cellulose membrane) [PIK3C3 242-259 18-mer array peptide, E251F]
4. MSTESANSFTLIPEASDG (BECN1, human, amino acids 89-106; source: synthetic peptide, SPOT synthesis on cellulose membrane) [BECN1 89-106 18-mer array peptide, G101P]
5. MSTESANSFTFIGEASDG (BECN1, human, amino acids 89-106; source: synthetic peptide, SPOT synthesis on cellulose membrane) [BECN1 89-106 18-mer array peptide, L99F]

[reply]
binds
binds
binds
binds
binds

Could you report binding result for every entry in the following list?
1. MSTESANSFELIGEASDG (BECN1, human, amino acids 89-106; source: synthetic peptide, SPOT synthesis on cellulose membrane) [BECN1 89-106 18-mer array peptide, T98E]
2. ETDLGTDWVNLPSPRFCD (ATG14, human, amino acids 428-445; source: synthetic peptide, SPOT synthesis on cellulose membrane) [ATG14 428-445 18-mer array peptide, E436V]
3. MSTESANCFTLIGEASDG (BECN1, human, amino acids 89-106; source: synthetic peptide, SPOT synthesis on cellulose membrane) [BECN1 89-106 18-mer array peptide, S96C]
4. MSTESANWFTLIGEASDG (BECN1, human, amino acids 89-106; source: synthetic peptide, SPOT synthesis on cellulose membrane) [BECN1 89-106 18-mer array peptide, S96W]

[reply]
["binds", "binds", "binds", "binds"]
